Biological target: hNLRP3 (Homo sapiens)
Construct: THP-1 cells were purchased from the American Type Culture Collection; host or cells: THP-1 cells, PMA-differentiated
Sequence (Q96P20 whole entry): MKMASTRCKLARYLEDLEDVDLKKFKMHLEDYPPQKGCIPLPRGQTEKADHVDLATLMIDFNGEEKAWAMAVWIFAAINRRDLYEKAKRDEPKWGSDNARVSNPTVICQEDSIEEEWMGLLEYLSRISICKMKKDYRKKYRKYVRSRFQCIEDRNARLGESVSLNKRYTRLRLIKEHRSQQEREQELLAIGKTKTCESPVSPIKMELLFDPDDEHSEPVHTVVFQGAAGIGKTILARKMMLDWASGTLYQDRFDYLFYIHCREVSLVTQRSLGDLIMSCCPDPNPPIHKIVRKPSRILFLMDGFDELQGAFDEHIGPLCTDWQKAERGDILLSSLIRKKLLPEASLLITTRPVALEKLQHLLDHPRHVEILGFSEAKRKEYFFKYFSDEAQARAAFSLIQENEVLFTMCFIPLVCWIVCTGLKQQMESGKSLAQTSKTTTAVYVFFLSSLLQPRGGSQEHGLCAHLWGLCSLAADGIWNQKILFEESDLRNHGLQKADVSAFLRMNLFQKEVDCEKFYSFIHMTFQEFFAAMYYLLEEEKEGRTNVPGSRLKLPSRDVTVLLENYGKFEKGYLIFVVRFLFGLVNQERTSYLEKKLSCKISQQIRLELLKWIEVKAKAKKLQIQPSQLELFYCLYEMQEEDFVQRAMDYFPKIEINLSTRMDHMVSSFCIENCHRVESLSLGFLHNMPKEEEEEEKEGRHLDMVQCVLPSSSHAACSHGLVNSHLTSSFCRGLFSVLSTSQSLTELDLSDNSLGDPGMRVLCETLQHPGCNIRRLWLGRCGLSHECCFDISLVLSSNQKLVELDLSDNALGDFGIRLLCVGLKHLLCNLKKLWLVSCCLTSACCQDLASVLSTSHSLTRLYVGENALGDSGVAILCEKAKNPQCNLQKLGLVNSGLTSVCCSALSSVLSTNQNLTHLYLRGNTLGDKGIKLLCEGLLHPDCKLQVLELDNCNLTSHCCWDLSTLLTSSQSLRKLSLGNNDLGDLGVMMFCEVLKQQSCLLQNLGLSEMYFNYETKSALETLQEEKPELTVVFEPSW
Experiment: hNLRP3 agonist assay: IL-1β production in PMA-differentiated THP-1 cells (ELISA)
Format: cell-based
Conditions: Table 2, 4 hours, IL-1β by ELISA
pEC50: −log10 of the molar value.
In this section we review reported pEC50 values for a set of compounds.

compound	measurement type	test value
Nc1nc2cc(F)c(F)cc2c2[nH]c(CCCO)nc12	pEC50	4.00 to 4.70
Nc1nc2cc(-c3ccccc3)ccc2c2[nH]c(CCCO)nc12	pEC50	≥ 6.00
Nc1nc2cc(-n3cccn3)ccc2c2[nH]c(CCCO)nc12	pEC50	≥ 6.00
CCc1ccc2c(c1)nc(N)c1nc(CCCO)[nH]c12	pEC50	4.70 to 6.00
COC(=O)CCn1c(CCCO)nc2c(N)nc3cc(Br)ccc3c21	pEC50	4.70 to 6.00

Name the recorded pEC50 for CSc1ccc(-c2ccc3c(c2)nc(N)c2nc(CCCO)[nH]c23)cn1 . < 4.00

Name the recorded pEC50 for Cc1cc(C)n(-c2ccc3c(c2)nc(N)c2nc(CCCO)[nH]c23)n1 . 4.00 to 4.70

Name the recorded pEC50 for CCNC(C)(C)c1nc2c(N)nc3cc(-c4cc[nH]n4)ccc3c2[nH]1 . 4.70 to 6.00

Name the recorded pEC50 for Nc1nc2cc(-c3ccc(F)cc3)ccc2c2[nH]c(CCCO)nc12 . < 4.00

Name the recorded pEC50 for Nc1nc2cc(C3CCOCC3)ccc2c2[nH]c(CCCO)nc12 . < 4.00
